target: T1, human melanocortin 4 receptor (human, UniProt P32245 1-332); test: 125I-NDP-MSH competition; fold vs SEQ ID NO: 1 control
T1 construct: whole, on cells; the assays used the receptor on HEK293 cells; also called hMC4R
T1 sequence (P32245 whole entry): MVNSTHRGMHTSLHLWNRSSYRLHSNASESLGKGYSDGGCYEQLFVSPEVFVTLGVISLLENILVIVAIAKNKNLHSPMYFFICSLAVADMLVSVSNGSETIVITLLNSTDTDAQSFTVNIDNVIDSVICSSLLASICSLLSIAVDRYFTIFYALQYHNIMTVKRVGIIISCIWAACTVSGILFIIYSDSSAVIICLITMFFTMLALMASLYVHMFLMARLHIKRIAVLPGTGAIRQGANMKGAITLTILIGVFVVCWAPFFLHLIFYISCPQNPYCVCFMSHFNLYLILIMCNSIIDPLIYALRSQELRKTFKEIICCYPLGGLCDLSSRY
Square brackets hold non-standard residues; d marks the D form.
recorded_metric: Fold Diff (fold)
Form entry: value (fold) — number only.

Below, 3 binders whose answers are already recorded.
> print(dat)
                                     binder  recorded.metric  measurement.unit  readout.number
1  cyclo(PRYFNAF[dP]) (Phe112Tyr SNP in the Asn scaffold; also called c[Pro-Arg-Tyr-Phe-Asn-Ala-Phe-DPro]) [ZMK 2-110]        Fold Diff              fold            2000
2  cyclo(PRFFNVF[dP]) (Ala115Val SNP in the Asn scaffold; also called c[Pro-Arg-Phe-Phe-Asn-Val-Phe-DPro]) [ZMK 2-82]        Fold Diff              fold               3
3  cyclo(PHFFNAF[dP]) (Arg111His SNP in the Asn scaffold; also called c[Pro-His-Phe-Phe-Asn-Ala-Phe-DPro]) [ZMK 2-96]        Fold Diff              fold             300

// next entry
Entry cyclo(PCFFNAF[dP]) (Arg111Cys SNP in the Asn scaffold; also called c[Pro-Cys-Phe-Phe-Asn-Ala-Phe-DPro]) [ZMK 3-18] ; Fold Diff = 300

Where do these numbers come from? They come from patent US20210179666A1.
